Where do these numbers come from? They come from the supplement of paper PMC7366291.

Tested on: Danio rerio Tg(wt1b:EGFP) embryo, pronephros
run description: pronephric angle neck segment to proximal convoluted tubule (mean of left and right), fold change vs DMSO control; higher = larger pronephric angle
recorded conditions: 25 µM; exposure: 24-48 hpf
Counter-ions that a name gives are not always drawn.
Task for the reader: assign each of the following molecules its reported pronephric angle neck segment.
Give a plain numeric answer without units written out.

Lookup: What does the data say about its pronephric angle neck segment? Entry: CO/N=C(\C(=O)N[C@@H]1C(=O)N2C(C(=O)O)=C(C[N+]3(C)CCCC3)CS[C@H]12)c1csc(N)n1 [Cefepime hydrochloride]
Found: 0.979

Lookup: What does the data say about its pronephric angle neck segment? Entry: O=C1C(CC[S+]([O-])c2ccccc2)C(=O)N(c2ccccc2)N1c1ccccc1 (stereo not drawn) [Sulfinpyrazone]
Found: 1

Lookup: What does the data say about its pronephric angle neck segment? Entry: CC(=O)N(CC(C)C(=O)O)c1c(I)cc(I)c(N)c1I (stereo not drawn) [Iocetamic acid]
Found: 0.986
